- TARGET_OR_SYSTEM: neutrophil elastase (Homo sapiens (Human))
- Sequence (P08246 30-247): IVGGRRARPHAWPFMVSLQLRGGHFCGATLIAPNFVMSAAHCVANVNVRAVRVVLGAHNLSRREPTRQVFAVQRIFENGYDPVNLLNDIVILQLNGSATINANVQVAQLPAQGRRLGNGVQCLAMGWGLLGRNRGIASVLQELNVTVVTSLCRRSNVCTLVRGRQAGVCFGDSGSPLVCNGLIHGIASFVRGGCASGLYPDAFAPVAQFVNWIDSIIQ
- EXPERIMENT_SUMMARY: Human Neutrophil Elastase Assay
- CONDITION_DETAILS: substrate MeOSuc-Ala-Ala-Pro-Val-AMC
- Description: Human Neutrophil Elastase Assay All other materials were of the highest grade commercially available. […] Assay conditions: Test compounds were prediluted in DMSO and subsequently in compound buffer (5% DMSO final). […] After inactivation of the enzyme, fluorescence intensities were measured at 380 nm excitation and 460 nm emission wavelengths. […]
READOUT_TYPE: pIC50
Bear in mind: pIC50 is minus log10 of a mol/L concentration; give just that figure.

// recorded pIC50 for CCOC(=O)C1=C(C)N(c2cccc(C(F)(F)F)c2)C(=O)N(C)C1c1ccc(C#N)cc1-c1ccoc1 (centres unmarked) : 8.49

// recorded pIC50 for CCOC(=O)C1=C(C)N(c2cccc(C(F)(F)F)c2)C(=O)N(C)C1c1ccc(C#N)cc1C(=O)NC (centres unmarked) : 8.52

// recorded pIC50 for CC(=O)C1=C(C)N(c2cccc(C(F)(F)F)c2)C(=O)N(C)C1c1ccc(C#N)cc1C(=O)N1CCN2CCCC2C1 (centres unmarked) : 8.20

// recorded pIC50 for CC(=O)C1=C(C)N(c2cccc(C(F)(F)F)c2)C(=O)N(C)C1c1ccc(C#N)cc1C(=O)N1CCOCC1 (centres unmarked) : 8.65

// recorded pIC50 for CC(=O)C1=C(C)N(c2cccc(C(F)(F)F)c2)C(=O)N(C)C1c1ccc(C#N)cc1-c1ccco1 (centres unmarked) : 8.72

// recorded pIC50 for CCOC(=O)C1=C(C)N(c2cccc(C(F)(F)F)c2)C(=O)N(C)C1c1ccc(C#N)cc1C(=O)NC1CCN(C(C)C)C1 (centres unmarked) : 8.96
